Data credit: patent US20140213531A1

# Target entity: Chymotrypsin, from human pancreas (human, UniProt P17538 19-263)
# Sequence (P17538 19-263): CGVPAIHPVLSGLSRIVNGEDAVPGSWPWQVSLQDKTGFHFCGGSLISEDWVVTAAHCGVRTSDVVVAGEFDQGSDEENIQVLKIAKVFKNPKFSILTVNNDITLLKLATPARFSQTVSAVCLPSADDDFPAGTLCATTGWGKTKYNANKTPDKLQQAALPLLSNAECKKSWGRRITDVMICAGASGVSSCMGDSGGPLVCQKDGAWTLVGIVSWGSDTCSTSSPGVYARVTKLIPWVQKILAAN
# Test description: cell-based or functional assay
Recorded endpoint: % inhibition at 100 µM (%)
Give your result in % as a bare value.

INSERT INTO results (binder, uom, recorded_result) VALUES
  ('FCTKSDPPICS (HELM PEPTIDE1{F.C.T.K.S.D.P.P.I.C.S.[dI].P}$PEPTIDE1,PEPTIDE1,2:R3-10:R3|PEPTIDE1,PEPTIDE1,1:R1-13:R2$$$V2.0; SMILES CC[C@@H](C)[C@H]1NC(=O)[C@H](CO)NC(=O)[C@@H]2CSSC[C@H](NC(=O)[C@H](Cc3ccccc3)NC(=O)[C@@H]3CCCN3C1=O)C(=O)N[C@@H]([C@@H](C)O)C(=O)N[C@@H](CCCCN)C(=O)N[C@@H](CO)C(=O)N[C@@H](CC(=O)O)C(=O)N1CCC[C@H]1C(=O)N1CCC[C@H]1C(=O)N[C@@H]([C@@H](C)CC)C(=O)N2) [Example 50]', '%', 0);

Consider ICTXSDPPICR (HELM PEPTIDE1{I.C.T.[Nle].S.D.P.P.I.C.R.[dP].P}$PEPTIDE1,PEPTIDE1,2:R3-10:R3|PEPTIDE1,PEPTIDE1,1:R1-13:R2$$$V2.0; SMILES CCCC[C@@H]1NC(=O)[C@H]([C@@H](C)O)NC(=O)[C@@H]2CSSC[C@H](NC(=O)[C@H]([C@@H](C)CC)NC(=O)[C@@H]3CCCN3C(=O)[C@@H]3CCCN3C(=O)[C@H](CC(=O)O)NC(=O)[C@H](CO)NC1=O)C(=O)N[C@@H](CCCNC(=N)N)C(=O)N1CCC[C@@H]1C(=O)N1CCC[C@H]1C(=O)N[C@@H]([C@@H](C)CC)C(=O)N2) [Example 22] . Its measured % inhibition at 100 µM is 0
